The measurements presented in this section are drawn from PubChem BioAssay (EPA / NIEHS).

Assay: CCTE_Simmons_CellTiterGLO_HEK293T: Viability Assessment in CCTE's Assays for Thyroperoxidase (TPO) Inhibition, Simmons Lab (AID 2283665)
Records with an inconclusive call do not appear. Activity calls are given as the source filed them. How the source made its calls: active means hit-call score of the fitted dose curve at least 0.9, where 1 is the maximum; inconclusive means response in the unintended direction; inactive means score below 0.9.
Pick from T (active), F (inactive) when you respond.

compound=CN(C)c1ccc(Cc2ccc(N(C)C)cc2)cc1 discrete_label=T
compound=O=C(CCCCCCCCc1cccnc1)N1CCC(C=C(c2ccccc2)c2ccccc2)CC1 discrete_label=T
compound=CCNc1ccccc1 discrete_label=F
compound=Cn1cnc([N+](=O)[O-])c1Sc1ncnc2nc[nH]c12 discrete_label=T
compound=CN(C)c1ccc(N=NS(=O)(=O)O)cc1 discrete_label=F
compound="O=c1n(CC2CO2)c(=O)n(CC2CO2)c(=O)n1CC1CO1 (stereo unspecified)" discrete_label=F
compound="CC/C(=C\\C(=N/O)C(N)=O)C(C)[N+](=O)[O-] (stereo unspecified)" discrete_label=F
compound=CC[C@H](C)C(=O)O[C@H]1C[C@@H](C)C=C2C=C[C@H](C)[C@H](CC[C@@H]3C[C@@H](O)CC(=O)O3)[C@H]21 discrete_label=F

query: Please share the test call associated with `CC(C)(O)c1coc(S(=O)(=O)NC(=O)Nc2c3c(cc4c2CCC4)CCC3)c1` .
result: T

query: Please share the test call associated with CCOC(=O)c1ccc(C2CCC(NC[C@H](O)COc3ccc(O)c(NS(C)(=O)=O)c3)CC2)cc1 (stereo partly specified) .
result: T

query: Please share the test call associated with `Nc1ccc(Nc2ccccc2)cc1` .
result: T
